Target: atToc132 G-domain bait (Arabidopsis thaliana) (UniProt Q9SLF3)
Sequence (Q9SLF3 456-794): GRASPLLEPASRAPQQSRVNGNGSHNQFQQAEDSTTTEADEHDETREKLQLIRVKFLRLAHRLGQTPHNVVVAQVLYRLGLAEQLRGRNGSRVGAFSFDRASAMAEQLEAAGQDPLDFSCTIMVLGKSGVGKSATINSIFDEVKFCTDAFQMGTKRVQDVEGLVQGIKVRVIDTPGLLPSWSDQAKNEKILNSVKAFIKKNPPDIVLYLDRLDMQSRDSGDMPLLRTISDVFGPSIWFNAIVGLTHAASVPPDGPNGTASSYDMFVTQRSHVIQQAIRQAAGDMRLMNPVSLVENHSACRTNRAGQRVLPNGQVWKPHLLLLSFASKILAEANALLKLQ
Assay: two-hybrid; pairwise split-ubiquitin yeast two-hybrid of isolated NubG-preys with Toc159G, Toc132G or Toc132AG bait in NMY51; growth on SD-LWHA (3-AT) and quantitative β-Gal assay, activity relative to a reference bait set to 100%
% increase in strength of interaction (β-Gal) with 132G against 159G values, listed per item
Expressed in %, but write only the number.

Q: Need % increase in strength of interaction (β-Gal) with 132G against 159G, item Oxygen-evolving enhancer protein 3-2 (natural protein) MAQAVTSMAGLRGASQAVLEGSLQINGSNRLNISRVSVGSQRTGLVIRAQQNVSVPESSRRSVIGLVAAGLAGGSFVKAVFAEAIPIKVGGPPLPSGGLPGTDNSDQARDFSLALKDRFYIQPLSPTEAAARAKDSAKEIINVKSFIDKKAWPYVQNDLRLRASYLRYDLNTVISAKPKEEKQSLKDLTAKLFQTIDNLDYAARSKSSPDAEKYYSETVSSLNNVLAKLG
Ans: 20

Q: Similarly, Lactoylglutathionelyase (natural protein) MASEARESPANNPGLSTNRDEATKGYIMQQTMFRIKDPKASLDFYSRVLGMSLLKRLDFSEMKFSLYFLGYEDTTTAPTDPTERTVWTFGQPATIELTHNWGTESDPEFKGYHNGNSEPRGFGHIGVTVDDVHKACERFEELGVEFAKKPNDGKMKNIAFIKDPDGYWIEIFDLKTIGTTTVNAA ?
Ans: 91.5

Q: Similarly, Ferredoxin-thioredoxin reductase subunit A (natural protein) MNLQAVSCSFGFLSSPLGVTPRTSFRRFVIRAKTEPSEKSVEIMRKFSEQYARRSGTYFCVDKGVTSVVIKGLAEHKDSYGAPLCPCRHYDDKAAEVGQGFWNCPCVPMRERKECHCMLFLTPDNDFAGKDQTITSDEIKETTANM ?
Ans: 45.2
